Sourced from paper PMC12157728

assay: Lipophilicity by gradient RP-HPLC (C18, pH 7.4): CHI, chrom logD, PFI; assay type: physicochemical; conditions: C18 column, pH 7.4; Chrom logD = 0.0525 × CHI − 1.467
// reported chrom logD (RP-HPLC) for each item listed

[
  {
    "compound": "Cl.Clc1ccccc1Nc1nc(NCCOc2ccccc2)nc(N2CCOCC2)n1 [Compound 11]",
    "chrom logD (RP-HPLC)": 4.012
  },
  {
    "compound": "Cl.Fc1ccc(N2CCN(CCNc3nc(Nc4ccccc4Cl)nc(N4CCOCC4)n3)CC2)cc1 [Compound 7]",
    "chrom logD (RP-HPLC)": 4.443
  },
  {
    "compound": "Cl.Clc1ccccc1Nc1nc(N2CCOCC2)nc(N2CCN(c3nsc4ccccc34)CC2)n1 [Compound 9]",
    "chrom logD (RP-HPLC)": 4.226
  },
  {
    "compound": "Cl.Clc1ccccc1Nc1nc(NCCNc2ccccc2)nc(N2CCOCC2)n1 [Compound 10]",
    "chrom logD (RP-HPLC)": 3.936
  },
  {
    "compound": "Cl.Clc1ccccc1Nc1nc(N2CCOCC2)nc(N2CCN(c3ccccc3)CC2)n1 [Compound 8]",
    "chrom logD (RP-HPLC)": 4.148
  },
  {
    "compound": "Cl.Clc1ccccc1Nc1nc(NCc2ccccc2)nc(N2CCOCC2)n1 [Compound 5]",
    "chrom logD (RP-HPLC)": 3.947
  },
  {
    "compound": "Cl.Clc1ccccc1Nc1nc(NCCc2ccccc2)nc(N2CCOCC2)n1 [Compound 3]",
    "chrom logD (RP-HPLC)": 3.947
  },
  {
    "compound": "Cl.Clc1ccccc1Nc1nc(NCCCc2ccccc2)nc(N2CCOCC2)n1 [Compound 6]",
    "chrom logD (RP-HPLC)": 4.706
  },
  {
    "compound": "Cl.Clc1ccccc1Nc1nc(Nc2ccccc2)nc(N2CCOCC2)n1 [Compound 4]",
    "chrom logD (RP-HPLC)": 4.098
  }
]
